# STUDY TARGET: UniProt:P37023
# Sequence (P37023 whole entry): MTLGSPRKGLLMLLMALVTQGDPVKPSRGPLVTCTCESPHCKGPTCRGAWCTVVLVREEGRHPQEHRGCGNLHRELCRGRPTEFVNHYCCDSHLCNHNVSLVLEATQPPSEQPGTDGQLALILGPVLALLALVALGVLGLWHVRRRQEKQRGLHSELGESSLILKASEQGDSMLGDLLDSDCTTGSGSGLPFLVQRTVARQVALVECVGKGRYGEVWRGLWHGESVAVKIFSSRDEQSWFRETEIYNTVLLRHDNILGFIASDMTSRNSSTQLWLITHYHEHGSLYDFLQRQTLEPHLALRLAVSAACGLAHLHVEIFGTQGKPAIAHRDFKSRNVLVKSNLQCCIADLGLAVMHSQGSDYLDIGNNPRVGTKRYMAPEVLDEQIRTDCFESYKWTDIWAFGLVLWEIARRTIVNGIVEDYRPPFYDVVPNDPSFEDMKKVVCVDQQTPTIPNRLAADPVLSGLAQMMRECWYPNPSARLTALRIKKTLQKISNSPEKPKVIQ
The source made the active and inactive calls.
Pick one: true (1) (active), false (0) (inactive)

INSERT INTO measurements (smiles_representation, answer_label) VALUES
  ('Cc1csc(-c2nnc(Nc3ccc(Oc4ncccc4-c4ccnc(N)n4)cc3)c3ccccc23)c1', 'false (0)'),
  ('Cn1cc(-c2cnc3ccc4ccc(CS(=O)(=O)NCc5ccccn5)cc4c(=O)c3c2)cn1', 'false (0)'),
  ('O=C(Cc1ccc(-c2ccc(OCCN3CCOCC3)cc2)cn1)NCc1ccccc1', 'false (0)'),
  ('Cn1cnc2c(F)c(Nc3ccc(Br)cc3F)c(C(=O)NOCCO)cc21', 'false (0)'),
  ('O=C(Nc1c[nH]nc1-c1nc2cc(CN3CCOCC3)ccc2[nH]1)NC1CC1', 'true (1)');

Identify the outcome logged in this assay for the compound shown: `Cc1cc(C(=O)NOCCO)c(Nc2ccc(I)cc2F)n(C)c1=O`
false (0)

Query: recorded result category for `C#Cc1cccc(Nc2ncnc3cc(OC)c(OCCCCCCC(=O)NO)cc23)c1` in this test
false (0)

Can you look up the reported call for `CCn1c(C(=O)N(C2CC2)C2CC2)cc2c3c(ncn3C)c(Nc3cc(C)n(C)n3)nc21` for me?
false (0)

What did this assay record as the result for `NC(=O)Nc1cc(-c2cccc(F)c2)sc1C(=O)N[C@H]1CCCNC1` ?
false (0)

Hi, do you know how `CO[C@H]1C[C@@H]2CC[C@@H](C)[C@@](O)(O2)C(=O)C(=O)N2CCCC[C@H]2C(=O)O[C@H]([C@H](C)C[C@@H]2CC[C@@H](O)[C@H](OC)C2)CC(=O)[C@H](C)/C=C(\C)[C@@H](O)[C@@H](OC)C(=O)[C@H](C)C[C@H](C)/C=C/C=C/C=C/1C` came out in this test?
false (0)

----------
# STUDY TARGET: Myosin-14 (Homo sapiens); further: in the data inactive means no Kd found up to 30 µM
# Sequence (Q7Z406 whole entry): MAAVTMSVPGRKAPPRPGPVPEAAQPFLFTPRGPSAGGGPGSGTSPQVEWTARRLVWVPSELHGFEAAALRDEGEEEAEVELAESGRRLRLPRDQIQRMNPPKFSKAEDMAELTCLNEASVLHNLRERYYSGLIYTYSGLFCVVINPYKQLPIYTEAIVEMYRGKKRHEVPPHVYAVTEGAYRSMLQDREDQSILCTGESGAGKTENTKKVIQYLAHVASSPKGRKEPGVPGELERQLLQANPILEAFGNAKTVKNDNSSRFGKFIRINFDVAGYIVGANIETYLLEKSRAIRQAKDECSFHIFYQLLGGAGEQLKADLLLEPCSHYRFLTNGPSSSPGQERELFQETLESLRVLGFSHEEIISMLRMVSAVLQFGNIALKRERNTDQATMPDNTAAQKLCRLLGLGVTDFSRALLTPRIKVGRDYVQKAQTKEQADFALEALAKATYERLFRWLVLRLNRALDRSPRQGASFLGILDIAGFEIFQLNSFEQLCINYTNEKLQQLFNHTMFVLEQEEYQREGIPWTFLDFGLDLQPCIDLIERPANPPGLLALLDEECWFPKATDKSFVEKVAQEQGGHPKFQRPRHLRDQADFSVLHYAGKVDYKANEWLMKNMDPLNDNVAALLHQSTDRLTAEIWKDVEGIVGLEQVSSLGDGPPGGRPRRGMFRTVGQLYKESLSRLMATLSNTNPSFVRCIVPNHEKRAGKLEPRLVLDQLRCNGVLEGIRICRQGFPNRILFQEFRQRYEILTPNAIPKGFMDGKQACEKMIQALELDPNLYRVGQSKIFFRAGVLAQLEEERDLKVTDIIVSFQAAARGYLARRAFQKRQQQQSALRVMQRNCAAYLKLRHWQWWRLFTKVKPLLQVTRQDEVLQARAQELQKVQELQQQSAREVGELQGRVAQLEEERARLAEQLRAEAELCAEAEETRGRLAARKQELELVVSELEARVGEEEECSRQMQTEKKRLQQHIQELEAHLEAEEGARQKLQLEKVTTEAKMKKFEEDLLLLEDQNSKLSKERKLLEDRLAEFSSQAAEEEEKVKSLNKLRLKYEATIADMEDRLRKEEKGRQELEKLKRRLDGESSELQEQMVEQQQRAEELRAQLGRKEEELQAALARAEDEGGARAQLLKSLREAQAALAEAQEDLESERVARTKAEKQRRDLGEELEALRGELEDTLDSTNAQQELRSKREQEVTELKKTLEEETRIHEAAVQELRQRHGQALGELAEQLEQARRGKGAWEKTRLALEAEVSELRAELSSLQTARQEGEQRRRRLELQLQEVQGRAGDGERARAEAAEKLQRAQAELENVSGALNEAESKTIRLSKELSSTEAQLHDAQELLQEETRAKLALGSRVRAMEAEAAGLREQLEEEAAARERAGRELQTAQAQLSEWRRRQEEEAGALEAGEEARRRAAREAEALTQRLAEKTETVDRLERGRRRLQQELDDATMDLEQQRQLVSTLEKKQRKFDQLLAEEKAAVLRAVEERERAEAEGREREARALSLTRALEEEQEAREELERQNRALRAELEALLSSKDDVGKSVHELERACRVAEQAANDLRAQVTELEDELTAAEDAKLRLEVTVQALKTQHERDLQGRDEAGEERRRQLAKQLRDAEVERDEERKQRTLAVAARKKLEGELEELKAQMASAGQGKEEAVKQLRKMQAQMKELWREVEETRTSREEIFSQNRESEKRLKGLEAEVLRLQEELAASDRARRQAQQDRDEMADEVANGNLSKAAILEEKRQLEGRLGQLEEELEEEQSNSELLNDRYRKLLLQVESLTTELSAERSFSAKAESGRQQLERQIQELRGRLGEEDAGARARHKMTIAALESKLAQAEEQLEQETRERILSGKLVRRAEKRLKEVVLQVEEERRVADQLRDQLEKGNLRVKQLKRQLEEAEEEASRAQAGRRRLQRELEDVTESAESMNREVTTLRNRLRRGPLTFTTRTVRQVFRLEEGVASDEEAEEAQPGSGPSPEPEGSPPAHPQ
Activity calls are given as the source filed them.
REPORTED ENDPOINT: Kd

Return the recorded Kd value; entry: `CNC(=O)c1cccc2cc(Oc3ccnc4cc(OCC5(N)CC5)c(OC)cc34)ccc12`
> 30 µM (inactive)

Quote Kd reported for `Cn1cc(C2=C(c3cn(C4CCN(Cc5ccccn5)CC4)c4ccccc34)C(=O)NC2=O)c2ccccc21` please.
> 30 µM (inactive)

Annotate the molecule `CN1CCN(CCOc2cc(OC3CCOCC3)c3c(Nc4c(Cl)ccc5c4OCO5)ncnc3c2)CC1` with its measured Kd.
> 30 µM (inactive)

----------
# STUDY TARGET: Tyrosine-protein kinase Lyn (Homo sapiens); further: in the data inactive means no Kd found up to 30 µM
# Sequence (P07948 whole entry): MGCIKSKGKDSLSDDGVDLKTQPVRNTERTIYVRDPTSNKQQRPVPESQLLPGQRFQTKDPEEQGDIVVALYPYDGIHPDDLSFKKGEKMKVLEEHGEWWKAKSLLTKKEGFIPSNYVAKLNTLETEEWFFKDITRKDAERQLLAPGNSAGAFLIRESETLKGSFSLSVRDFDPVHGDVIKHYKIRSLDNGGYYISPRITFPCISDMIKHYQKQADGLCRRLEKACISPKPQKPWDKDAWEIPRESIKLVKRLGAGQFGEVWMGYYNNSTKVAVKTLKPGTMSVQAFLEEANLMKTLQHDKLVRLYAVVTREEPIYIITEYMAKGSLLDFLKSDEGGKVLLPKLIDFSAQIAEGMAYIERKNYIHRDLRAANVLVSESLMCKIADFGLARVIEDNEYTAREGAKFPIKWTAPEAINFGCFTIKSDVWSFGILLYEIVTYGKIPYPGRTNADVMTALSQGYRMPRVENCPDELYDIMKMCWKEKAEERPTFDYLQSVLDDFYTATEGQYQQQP
Active and inactive are the calls of the source.
Outcome field: choose from active, inactive

Worked examples follow.
INSERT INTO results (smiles_representation, answer_label) VALUES
  ('CCS(=O)(=O)c1cccc(-c2cc(C(=O)NC3CCN(C)CC3)c(C)c3[nH]c4ncc(C)cc4c23)c1', 'active'),
  ('COc1cc(Nc2ncc3c(n2)-c2ccc(Cl)cc2C(c2c(F)cccc2OC)=NC3)ccc1C(=O)O', 'inactive'),
  ('C#Cc1cccc(Nc2ncnc3cc(OC)c(OCCCCCCC(=O)NO)cc23)c1', 'inactive'),
  ('C[C@@H](Oc1cc(C(=O)Nc2ccc(C(=O)N3CCN(C)CC3)cc2)nnc1N)c1c(Cl)ccc(F)c1Cl', 'inactive'),
  ('C[C@H]1CNCCCN1S(=O)(=O)c1cccc2cncc(F)c12', 'inactive');

Any idea what this test logged for `Cc1nc(Nc2n[nH]c3c2CN(C(=O)N[C@H](CN(C)C)c2ccccc2)C3(C)C)c2sccc2n1` ?
inactive

Kindly provide the recorded test outcome for the following compound: `CC(=O)c1cnc2ccc(-c3cc(Cl)c(O)c(Cl)c3)nc2c1N[C@H]1CC[C@H](CN(C)C)CC1`
active

Outcome logged for `Cc1cccc(-c2nn3c(c2-c2ccnc4ccc(C(N)=O)cc24)CCC3)n1` in this assay:
inactive

src = ChEMBL document CHEMBL3991601
